# Measured on: 5-hydroxytryptamine receptor 2A (Homo sapiens)
# Sequence (P28223 whole entry): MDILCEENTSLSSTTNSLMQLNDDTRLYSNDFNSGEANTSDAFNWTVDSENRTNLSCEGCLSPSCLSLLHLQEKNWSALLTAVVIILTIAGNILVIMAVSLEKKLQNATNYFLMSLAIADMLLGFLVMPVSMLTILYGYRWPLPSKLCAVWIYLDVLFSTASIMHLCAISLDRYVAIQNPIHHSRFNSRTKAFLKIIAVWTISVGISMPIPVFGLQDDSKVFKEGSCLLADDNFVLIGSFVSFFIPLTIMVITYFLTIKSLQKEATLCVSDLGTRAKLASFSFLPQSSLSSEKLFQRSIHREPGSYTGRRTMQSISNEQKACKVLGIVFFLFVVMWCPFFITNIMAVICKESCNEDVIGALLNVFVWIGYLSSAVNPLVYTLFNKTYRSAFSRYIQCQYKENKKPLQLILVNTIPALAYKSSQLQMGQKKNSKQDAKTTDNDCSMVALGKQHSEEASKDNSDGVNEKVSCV
# Assay protocol: biochemical
# Assay type: cell-based, CHO-K1
Ki for assorted compounds
Express it in nM; write the number only.

O=S(=O)(c1cccc2ncccc12)N1CCCCC[C@H]1CCN1CCN(c2nsc3ccccc23)CC1 = 30
O=S(=O)(c1cncc2ccccc12)N1CCC[C@@H]1CCN1CCN(c2cccc3sccc23)CC1 = 26
O=S(=O)(c1cncc2ccccc12)N1CC[C@@H]1CCN1CCN(c2nsc3ccccc23)CC1 = 24
O=S(=O)(c1cccc2ncccc12)N1CCC[C@H]1CCN1CCN(c2nsc3ccccc23)CC1 = 16
O=S(=O)(c1cccc2cnccc12)N1CCC[C@H]1CCN1CCN(c2nsc3ccccc23)CC1 = 18
O=S(=O)(c1cccc2ncccc12)N1CCC[C@H]1CCN1CCN(c2cccc3[nH]ccc23)CC1 = 244
O=S(=O)(c1cncc2ccccc12)N1CCC[C@@H]1CCN1CCN(c2nsc3ccccc23)CC1 = 10
O=S(=O)(c1cccc2ncccc12)N1CC[C@@H]1CCN1CCN(c2cccc3sccc23)CC1 = 7

Would you kindly share the measured Ki for `O=S(=O)(c1cccc2ncccc12)N1CCC[C@H]1CCN1CCN(c2cccc3sccc23)CC1` ? 36

Could you tell me which Ki is on file for `O=S(=O)(c1cncc2ccccc12)N1CCC[C@H]1CCN1CCN(c2nsc3ccccc23)CC1` ? 13

What value of measured Ki is listed for `O=S(=O)(c1cncc2ccccc12)N1CCC[C@H]1CCN1CCN(c2cccc3[nH]ccc23)CC1` ? 82

Item under review: `O=S(=O)(c1cccc2ncccc12)N1CCCC[C@@H]1CCN1CCN(c2nsc3ccccc23)CC1` . Reported Ki? 29

Look up Ki for this compound: `O=S(=O)(c1cccc2ncccc12)N1CCC[C@@H]1CCN1CCN(c2cccc3sccc23)CC1` 56

Look up Ki for this compound: `O=S(=O)(c1cccc2ncccc12)N1CCC[C@@H]1CCN1CCN(c2cccc3[nH]ccc23)CC1` 451

Given `O=S(=O)(c1cncc2ccccc12)N1CCC[C@H]1CCN1CC=C(c2c[nH]c3ccc(Cl)cc23)CC1` , state its recorded Ki. 238

Which Ki reading was recorded for the compound `O=S(=O)(c1cccc2ncccc12)N1CCC[C@@H]1CCN1CCN(c2cccc3c2OCCO3)CC1` ? 296

Reported Ki for `O=S(=O)(c1cccc2ncccc12)N1CCC[C@@H]1CCN1CCC(c2noc3cc(F)ccc23)CC1` : what is it? 5

Which Ki is listed for `O=S(=O)(c1cncc2ccccc12)N1CCC[C@H]1CCN1CCC(c2noc3cc(F)ccc23)CC1` ? 6

Values from ChEMBL document CHEMBL4229332
